- measurement.target: T1, recombinant biotinylated human PAR2 extracellular domain (residues 1-75), N-terminal AviTag, C-terminal Flag … (human, UniProt P55085 26-75, biotin on the AviTag (enzymatic biotinylation))
- T1 construct: also called Bio-human-PAR2 ECD; human PAR2 ECD; not shown: N-terminal AviTag (Avidity LLC); C-terminal Flag and poly Histidine tags
- T1 sequence (P55085 26-75): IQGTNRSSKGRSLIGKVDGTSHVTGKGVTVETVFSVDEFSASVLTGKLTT
- test.summary: HTRF competition with Dylight650-Par0067 IgG, IgG
measured.metric: Fold IC50 pH 7.4 (Variant v Par0067) (fold)
Write it as a number; the unit fold goes unstated.

Some binders with recorded Fold IC50 pH 7.4 (Variant v Par0067):
>  <binder>
PaB670151 IgG (antibody, V domains shown, IgG1-TM (L234F, L235E, P331S), human lambda light chain) VH: EVQLLESGGGLVQPGGSLRLSCAASGFTFSSYAMNWVRQAPGKGLEWVSTISYSGSLISYADSVKGRFTISRDNSKNTLYLQMNSLRAEDTAVYYCARINHDPMDVWGQGTLVTVSS VL: SIELTQPPSVSVSPGQTASITCSGDNLGKKYVQWYQQKPGQSPVLVIYDDSNRPSGIPERFSGSNSGNTATLTISGTQAMDEADYYCHTWDHHHTTGEHNVFGGGTKLTVL

>  <unit.abbrev>
fold

>  <Fold IC50 pH 7.4 (Variant v Par0067)>
83.2

$$$$
>  <binder>
PaB670158 IgG (antibody, V domains shown, IgG1-TM (L234F, L235E, P331S), human lambda light chain) VH: EVQLLESGGGLVQPGGSLRLSCAASGFTFSSYAMNWVRQAPGKGLEWVSTISYHGHHISYADSHHHRFTISRDNSKNTLYLQMNSLRAEDTAVYYCARINNDPMDVWGQGTLVTVSS VL: SIELTQPPSVSVSPGQTASITCSGDNLGKKYVQWYQQKPGQSPVLVIYDDSNRPSGIPERFSGSNSGNTATLTISGTQAMDEADYYCQTWDGHHHTGETNHFGGGTKLTVL

>  <unit.abbrev>
fold

>  <Fold IC50 pH 7.4 (Variant v Par0067)>
8.2

$$$$
>  <binder>
PaB670157 IgG (antibody, V domains shown, IgG1-TM (L234F, L235E, P331S), human lambda light chain) VH: EVQLLESGGGLVQPGGSLRLSCAASGFTFSSYAMNWVRQAPGKGLEWVSTISYSGSLISYADSVKGRFTISRDNSKNTLYLQMNSLRAEDTAVYYCARIHHDPMDVWGQGTLVTVSS VL: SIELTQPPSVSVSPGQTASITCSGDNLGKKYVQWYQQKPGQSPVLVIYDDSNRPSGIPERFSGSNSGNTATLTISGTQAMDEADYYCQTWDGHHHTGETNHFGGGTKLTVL

>  <unit.abbrev>
fold

>  <Fold IC50 pH 7.4 (Variant v Par0067)>
18.9

$$$$
>  <binder>
PaB670146 IgG (antibody, V domains shown, IgG1-TM (L234F, L235E, P331S), human lambda light chain) VH: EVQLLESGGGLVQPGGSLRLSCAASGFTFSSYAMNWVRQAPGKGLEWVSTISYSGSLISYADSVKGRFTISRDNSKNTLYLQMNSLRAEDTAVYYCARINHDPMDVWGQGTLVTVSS VL: SIELTQPPSVSVSPGQTASITCSGDNLGKKYVQWYQQKPGQSPVLVIYDDSNRPSGIPERFSGSNSGNTATLTISGTQAMDEADYYCHTWHHHPTHGEHNVFGGGTKLTVL

>  <unit.abbrev>
fold

>  <Fold IC50 pH 7.4 (Variant v Par0067)>
110

$$$$

Attention now shifts to the item below.
Please give measured Fold IC50 pH 7.4 (Variant v Par0067) of the following entry: PaB670084 IgG (antibody, V domains shown, IgG1-TM (L234F, L235E, P331S), human lambda light chain; also called ZZ1PXA-A05) VH: EVQLLESGGGLVQPGGSLRLSCAASGFTFSSYAMNWVRQAPGKGLEWVSTISHSGHLIHHADSHKGRFTISRDNSKNTLYLQMNSLRAEDTAVYYCARINNDPMDVWGQGTLVTVSS VL: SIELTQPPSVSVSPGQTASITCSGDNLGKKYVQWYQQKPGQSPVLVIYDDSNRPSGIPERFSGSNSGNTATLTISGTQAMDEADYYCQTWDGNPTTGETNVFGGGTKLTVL
12.3
